Provenance of the data: ChEMBL document CHEMBL4689842

Reported Population Mitotic Cells (%) values are given for each entry in this list.
Test system: U2OS
Assay: Multiplex assay against U2OS
Type: toxicity, cell-based
Conditions: human, 48 h, 1 µM, compound concentration 1 uM, replicate 1
measure: Population Mitotic Cells (%)

- compound: "CC(/C=C1\\SC(=S)N(CCCC(=O)Nc2ccc(C(=O)O)c(O)c2)C1=O)=C\\c1ccccc1"
  measure: "Population Mitotic Cells (%)"
  recorded-number: 38
- compound: "N#Cc1cccc(C(=O)Nc2cc(-c3ccccc3)nn2-c2ccccc2)c1"
  measure: "Population Mitotic Cells (%)"
  recorded-number: 61
- compound: "CC(Cc1ccc(O)c(O)c1)C(C)Cc1ccc(O)c(O)c1 (centres undefined) [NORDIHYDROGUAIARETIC ACID]"
  measure: "Population Mitotic Cells (%)"
  recorded-number: 56
- compound: "CN(c1cc(C(F)(F)F)nc(OCCC(=O)O)n1)c1cccc2c1CCC2"
  measure: "Population Mitotic Cells (%)"
  recorded-number: 56
- compound: "C=CC(=O)Nc1cc(-n2c(=O)ccc3cnc4ccc(-c5ccc(NS(C)(=O)=O)cc5)cc4c32)ccc1C"
  measure: "Population Mitotic Cells (%)"
  recorded-number: 74
- compound: "Cl.NC[C@@H]1O[C@H](C23CC4CC(CC(C4)C2)C3)Cc2c1ccc(O)c2O"
  measure: "Population Mitotic Cells (%)"
  recorded-number: 66
- compound: "CCCCN(CC)c1nc(C)nc2c1c(C)cn2-c1c(C)cc(C)cc1C.Cl"
  measure: "Population Mitotic Cells (%)"
  recorded-number: 72
- compound: "CN1C(=O)[C@@H](NC(=O)c2cc3ccccc3[nH]2)N=C(c2ccccc2)c2ccccc21 [DEVAZEPIDE]"
  measure: "Population Mitotic Cells (%)"
  recorded-number: 66
- compound: "Cc1ccc(S(=O)(=O)NC2c3ccccc3Oc3ccccc32)cc1"
  measure: "Population Mitotic Cells (%)"
  recorded-number: 50

---

Test system: Fibroblast
Assay: Multiplex assay against human fibroblast
Type: toxicity, cell-based
Conditions: 12 h, 10 µM, compound concentration 10 uM, replicate 1
Label yes when Population Apoptotic (%) >= 60%; otherwise no.

- molecule: "CCOc1ccn(-c2ccc(F)cc2)c(=O)c1C(=O)Nc1ccc(Oc2ccnc(N)c2Cl)c(F)c1 [BMS-777607]"
  classification: "yes"
- molecule: "Cc1ccc(S(=O)(=O)NC2c3ccccc3Oc3ccccc32)cc1"
  classification: "yes"
- molecule: "CCCc1cc(C)[nH]c(=O)c1CNC(=O)c1cc(-c2ccc(N3CCN(C(C)C)CC3)nc2)cc2c1cnn2C(C)C"
  classification: "no"
- molecule: "CC(C)[C@H](CO)Nc1nc(Nc2cccc(Cl)c2)c2ncn(C(C)C)c2n1 [PURVALANOLA]"
  classification: "yes"
- molecule: "CC(/C=C1\\SC(=S)N(CCCC(=O)Nc2ccc(C(=O)O)c(O)c2)C1=O)=C\\c1ccccc1"
  classification: "yes"
- molecule: "CCCCN(CC)c1nc(C)nc2c1c(C)cn2-c1c(C)cc(C)cc1C.Cl"
  classification: "no"
- molecule: "N#CCNC(=O)c1ccc(-c2ccnc(Nc3ccc(N4CCOCC4)cc3)n2)cc1 [MOMELOTINIB]"
  classification: "yes"

---

Test system: HEK-293T
Assay: Multiplex assay against HEK293T
Type: toxicity, cell-based
Details: human, 24 h, 1 µM, compound concentration 1 uM, replicate 1
Label yes (1) when Population Pyknosed Nuclei (%) >= 20%; otherwise no (0).

- compound: "N#CCNC(=O)c1ccc(-c2ccnc(Nc3ccc(N4CCOCC4)cc3)n2)cc1"
  system-under-test: "HEK-293T"
  classification: "yes (1)"
- compound: "Cl.NC[C@@H]1O[C@H](C23CC4CC(CC(C4)C2)C3)Cc2c1ccc(O)c2O"
  system-under-test: "HEK-293T"
  classification: "yes (1)"
- compound: "CC[C@@H]1C(=O)N(C)c2cnc(Nc3ccc(C(=O)NC4CCN(C)CC4)cc3OC)nc2N1C1CCCC1"
  system-under-test: "HEK-293T"
  classification: "yes (1)"
- compound: "Cc1c(Nc2ccc(S(=O)(=O)N3CCN(C)CC3)cc2F)nc2ccc(-c3cnn(C4CC4)c3)cn2c1=O"
  system-under-test: "HEK-293T"
  classification: "no (0)"
- compound: "CCCCCNC(=N)N/N=C/c1c[nH]c2ccc(OC)cc12.O=C(O)/C=C\\C(=O)O [TEGASEROD MALEATE]"
  system-under-test: "HEK-293T"
  classification: "yes (1)"
- compound: "Cl.Cn1c2c(c3ccc(Cl)c(Cl)c31)C(C#N)C1(CCNCC1)NC2=O (centres undefined)"
  system-under-test: "HEK-293T"
  classification: "no (0)"
- compound: "NC(=O)c1ccc2nc(-c3ccc(C4(N)CCC4)cc3)c(-c3ccccc3)n2n1"
  system-under-test: "HEK-293T"
  classification: "no (0)"
- compound: "CC(C)C[C@H](NC(=O)[C@H](Cc1ccccc1)NC(=O)CNC(=O)CNC(=O)[C@@H](N)Cc1ccc(O)cc1)C(=O)O"
  system-under-test: "HEK-293T"
  classification: "yes (1)"
- compound: "CCCCN(CC)c1nc(C)nc2c1c(C)cn2-c1c(C)cc(C)cc1C.Cl"
  system-under-test: "HEK-293T"
  classification: "yes (1)"
